Target: hMeprin β (Homo sapiens, UniProt Q16820)
Sequence (Q16820 62-701): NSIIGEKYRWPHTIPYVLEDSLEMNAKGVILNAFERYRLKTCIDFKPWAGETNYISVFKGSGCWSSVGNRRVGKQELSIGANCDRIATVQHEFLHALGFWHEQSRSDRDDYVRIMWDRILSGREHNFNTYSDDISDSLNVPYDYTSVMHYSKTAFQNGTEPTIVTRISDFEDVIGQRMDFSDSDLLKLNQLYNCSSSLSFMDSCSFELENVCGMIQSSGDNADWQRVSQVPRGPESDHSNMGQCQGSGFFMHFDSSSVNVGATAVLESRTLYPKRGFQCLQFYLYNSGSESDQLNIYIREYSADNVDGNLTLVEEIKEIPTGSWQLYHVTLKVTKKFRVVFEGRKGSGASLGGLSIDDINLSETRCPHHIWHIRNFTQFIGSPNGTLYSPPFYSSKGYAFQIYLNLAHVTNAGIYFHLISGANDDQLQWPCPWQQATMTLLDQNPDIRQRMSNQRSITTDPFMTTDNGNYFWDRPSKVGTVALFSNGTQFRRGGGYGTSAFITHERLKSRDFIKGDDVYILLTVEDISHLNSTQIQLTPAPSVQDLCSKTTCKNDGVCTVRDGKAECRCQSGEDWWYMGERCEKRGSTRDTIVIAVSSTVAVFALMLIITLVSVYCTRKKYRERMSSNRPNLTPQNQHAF
Listed here: items and their measured log10 of Ki.
Heads up, the numbers here are log10 of Ki in nM units.

O=C(Cc1c(-c2cc(O)no2)n[nH]c1-c1ccccc1)NO ... 1.15
O=C(Cn1c(-c2ccc(Cl)c(O)c2F)nc2cc(C(=O)O)ccc21)NO ... 2.08
N#Cc1cccc(-c2n[nH]c(-c3ccccc3)c2CC(=O)NO)c1 ... 2.53
O=C(NO)C1c2ccccc2-c2[nH]nc(-c3ccccc3)c21 (stereo not drawn) ... 3.23

Ask: So what's the measured log10 of Ki for this one? "O=C(Cc1c(-c2ccc(C(=O)O)cc2)n[nH]c1-c1ccccc1)NO"
Result: 2.06

Ask: So what's the measured log10 of Ki for this one? "O=C(Cc1c(-c2ccc(Cl)c(O)c2F)nc2ccccn12)NO"
Result: 1.90

Ask: So what's the measured log10 of Ki for this one? "Cc1n[nH]c(-c2ccccc2)c1CC(=O)NO"
Result: 3.32

====

Biological target: hMeprin β (Homo sapiens, UniProt Q16820)
Outcome Measure: pKi
The scale used: pKi is minus the common logarithm of the concentration in molar units.

Ask: Form: Entry = "O=C(Cc1c(-c2ccccc2)[nH]nc1[C@H]1CC[C@H](C(=O)O)CC1)NO" | System = hMeprin β (Homo sapiens, UniProt Q16820) | pKi = ____
Result: 7.01

Ask: Form: Entry = "O=C(Cc1c(-c2ccccc2)noc1-c1ccccc1)NO" | System = hMeprin β (Homo sapiens, UniProt Q16820) | pKi = ____
Result: 6.23

Ask: Form: Entry = "O=C(Cc1c(-c2ccccc2)nn(Cc2cccc(C(=O)O)c2)c1-c1ccccc1)NO" | System = hMeprin β (Homo sapiens, UniProt Q16820) | pKi = ____
Result: 7.96

Ask: Form: Entry = "O=C(Cc1c(-c2cccc(C(=O)O)c2)n[nH]c1-c1cc(F)c(O)c(Cl)c1)NO" | System = hMeprin β (Homo sapiens, UniProt Q16820) | pKi = ____
Result: 9.62

Ask: Form: Entry = "O=C(Cc1c(-c2ccccc2)nn(Cc2ccc3c(c2)OCO3)c1-c1ccccc1)NO" | System = hMeprin β (Homo sapiens, UniProt Q16820) | pKi = ____
Result: 6.52
